# system.under.test: Nitric oxide synthase 1 (Rattus norvegicus)
# assay.summary: Inhibition of nNOS in Wistar rat striata tissue homogenate assessed as conversion of L-[3H]arginine to L-[3H]citrulline at 1 mM by liquid scintillation spectroscopy
# Type: tissue-based
# measurement.setup: Striatum
measure.name: inhibition (%)

Below, 5 compounds whose answers are already recorded.
sample_smiles=Nc1ccccc1-c1ccc(C(=O)NC2CCCCC2)[nH]1 experimental_value=13.4
sample_smiles=Cn1c(C(N)=O)ccc1-c1ccccc1N experimental_value=9.56
sample_smiles=Nc1ccc(Cl)cc1-c1ccc(C(=O)NC2CC2)[nH]1 experimental_value=48.1
sample_smiles=CCCCNC(=O)c1ccc(-c2cc(Cl)ccc2N)[nH]1 experimental_value=36.5
sample_smiles=NC(=O)c1ccc(-c2cc(Cl)ccc2N)[nH]1 experimental_value=34.5

P. COc1ccc(N)c(-c2ccc(C(=O)NC3CC3)[nH]2)c1
Q. CCNC(=O)c1ccc(-c2ccccc2N)[nH]1
R. NC(=O)c1ccc(-c2ccccc2N)[nH]1
S. Nc1ccccc1-c1ccc(C(=O)NC2CCC2)[nH]1
Q: Rank the 4 compounds: largest inhibition first, smallest last. Form entry: labels listed in requested order.
Ans: P, R, S, Q

I. CCNC(=O)c1ccc(-c2cc(Cl)ccc2N)[nH]1
II. Nc1ccccc1-c1ccc(C(=O)NC2CCCC2)[nH]1
Q: Between the two listed entries I and II , which has its inhibition at the higher number? Your answer should be the label of the entry you select.
Ans: I
(I: 33.4%, II: 5.36%)

---

# system.under.test: Nitric oxide synthase, inducible (Rattus norvegicus)
# assay.summary: Inhibition of iNOS in LPS-treated Wistar rat lung tissue homogenate assessed as conversion of L-[3H]arginine to L-[3H]citrulline at 1 mM by liquid scintillation spectroscopy
measure.name: inhibition (%)

Below, 2 molecules whose answers are already recorded.
sample_smiles=Nc1ccccc1-c1ccc(C(=O)NC2CC2)[nH]1 result_units=% experimental_value=-1.1
sample_smiles=COc1ccc(N)c(-c2ccc(C(=O)NC3CCCC3)[nH]2)c1 result_units=% experimental_value=26.2

a. Nc1ccccc1-c1ccc(C(=O)NC2CCCCC2)[nH]1
b. CNC(=O)c1ccc(-c2cc(OC)ccc2N)[nH]1
c. NC(=O)c1ccc(-c2ccccc2N)[nH]1
d. Nc1ccccc1-c1ccc(C(=O)NC2CCCC2)[nH]1
Q: Rank the 4 molecules: largest inhibition first, smallest last. Form entry: labels listed in requested order.
Ans: d, b, a, c
(d: 52.8%, b: 26.2%, a: 17.2%, c: 3.07%)

---

# system.under.test: Nitric oxide synthase, inducible (Rattus norvegicus)
# assay.summary: Inhibition of iNOS in LPS-treated Wistar rat lung tissue homogenate assessed as conversion of L-[3H]arginine to L-[3H]citrulline at 1 mM by liquid scintillation spectroscopy
measure.name: inhibition (%)

Below, 5 compounds whose answers are already recorded.
sample_smiles=CCNC(=O)c1ccc(-c2cc(Cl)ccc2N)[nH]1 measure_name=inhibition experimental_value=2.8
sample_smiles=CCCCNC(=O)c1ccc(-c2ccccc2N)[nH]1 measure_name=inhibition experimental_value=7.53
sample_smiles=CNC(=O)c1ccc(-c2ccccc2N)[nH]1 measure_name=inhibition experimental_value=32.7
sample_smiles=CCNC(=O)c1ccc(-c2ccccc2N)[nH]1 measure_name=inhibition experimental_value=20.5
sample_smiles=COc1ccc(N)c(-c2ccc(C(N)=O)[nH]2)c1 measure_name=inhibition experimental_value=8.95

1. COc1ccc(N)c(-c2ccc(C(=O)NCc3ccccc3)[nH]2)c1
2. CCCNC(=O)c1ccc(-c2cc(OC)ccc2N)[nH]1
3. CCCNC(=O)c1ccc(-c2ccccc2N)[nH]1
4. CNC(=O)c1ccc(-c2cc(Cl)ccc2N)[nH]1
5. CCCCNC(=O)c1ccc(-c2cc(Cl)ccc2N)[nH]1
Q: Form: Sort by [inhibition] Order [ ascending ] Form entry: labels listed in requested order.
Ans: 4, 5, 2, 3, 1

---

# system.under.test: Nitric oxide synthase, inducible (Mus musculus) (UniProt P29477)
# Sequence (whole entry): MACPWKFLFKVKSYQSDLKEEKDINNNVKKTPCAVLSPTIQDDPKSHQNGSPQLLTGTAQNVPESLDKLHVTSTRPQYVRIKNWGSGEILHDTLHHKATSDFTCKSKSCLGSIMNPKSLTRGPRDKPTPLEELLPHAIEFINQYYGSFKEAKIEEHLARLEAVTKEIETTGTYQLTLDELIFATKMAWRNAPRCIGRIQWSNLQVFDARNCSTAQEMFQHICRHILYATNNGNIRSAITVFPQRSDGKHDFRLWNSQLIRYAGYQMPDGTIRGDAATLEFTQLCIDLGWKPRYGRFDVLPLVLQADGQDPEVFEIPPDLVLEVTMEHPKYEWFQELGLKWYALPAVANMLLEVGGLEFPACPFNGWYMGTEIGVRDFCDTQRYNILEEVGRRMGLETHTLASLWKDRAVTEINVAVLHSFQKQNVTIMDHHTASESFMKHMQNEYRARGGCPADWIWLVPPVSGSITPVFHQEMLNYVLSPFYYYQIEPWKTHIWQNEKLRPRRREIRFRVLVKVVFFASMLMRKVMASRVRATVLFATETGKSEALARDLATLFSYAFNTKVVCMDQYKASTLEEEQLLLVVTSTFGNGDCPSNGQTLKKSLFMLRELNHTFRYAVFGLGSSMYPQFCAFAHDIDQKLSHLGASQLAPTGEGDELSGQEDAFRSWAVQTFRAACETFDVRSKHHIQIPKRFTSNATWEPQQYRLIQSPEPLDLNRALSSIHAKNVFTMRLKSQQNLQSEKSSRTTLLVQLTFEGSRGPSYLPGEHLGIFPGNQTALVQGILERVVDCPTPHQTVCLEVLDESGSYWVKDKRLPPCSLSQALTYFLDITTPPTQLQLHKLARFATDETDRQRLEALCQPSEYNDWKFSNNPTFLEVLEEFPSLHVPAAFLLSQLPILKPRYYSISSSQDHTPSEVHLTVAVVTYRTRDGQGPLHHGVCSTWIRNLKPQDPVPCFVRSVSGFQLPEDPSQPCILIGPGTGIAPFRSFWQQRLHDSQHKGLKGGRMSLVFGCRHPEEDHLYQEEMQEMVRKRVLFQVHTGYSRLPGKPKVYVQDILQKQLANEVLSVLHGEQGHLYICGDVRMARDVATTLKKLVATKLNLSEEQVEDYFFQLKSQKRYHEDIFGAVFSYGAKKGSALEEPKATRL
# assay.summary: Inhibition of cytosolic iNOS in stantia nigra isolated from MPTP-induced parkinson's disease C57/Bl6 mouse model assessed as L-[3H]citrulline per mg of protein at 20 mg/kg, b.w 1 hr before MPTP challenge after 32 hrs by liquid scintillation spectroscopy
# Assay type: organism-based
# Parameters: dose 20 mg/kg
measure.name: Activity (pmol/min)

Below, 2 compounds whose answers are already recorded.
sample_smiles=CNC(=O)c1ccc(-c2ccccc2N)[nH]1 system_under_test="Nitric oxide synthase, inducible (Mus musculus) (UniProt P29477)" experimental_value=5.78
sample_smiles=CN1CC=C(c2ccccc2)CC1 system_under_test="Nitric oxide synthase, inducible (Mus musculus) (UniProt P29477)" experimental_value=29.4

a. COc1ccc2[nH]cc(CCNC(C)=O)c2c1
b. Nc1ccccc1-c1ccc(C(=O)NC2CCCC2)[nH]1
Q: Between the two listed entries a and b , which has its Activity at the higher number? Your answer should be the label of the entry you select.
Ans: a

---

# system.under.test: Nitric oxide synthase 1 (Mus musculus)
# assay.summary: Inhibition of cytosolic nNOS in stantia nigra isolated from MPTP-induced parkinson's disease C57/Bl6 mouse model assessed as L-[3H]citrulline per mg of protein at 20 mg/kg, b.w 1 hr before MPTP challenge after 32 hrs by liquid scintillation spectroscopy
# Format: organism-based
# Design: dose 20 mg/kg
measure.name: Activity (pmol/min)

Below, 2 compounds whose answers are already recorded.
sample_smiles=CN1CC=C(c2ccccc2)CC1 measure_name=Activity result_units=pmol/min experimental_value=83.7
sample_smiles=Nc1ccccc1-c1ccc(C(=O)NC2CCCC2)[nH]1 measure_name=Activity result_units=pmol/min experimental_value=74.3

P. COc1ccc2[nH]cc(CCNC(C)=O)c2c1
Q. CNC(=O)c1ccc(-c2ccccc2N)[nH]1
Q: Between the two listed entries P and Q , which has its Activity at the higher number? Your answer should be the label of the entry you select.
Ans: Q

---

# system.under.test: Nitric oxide synthase, inducible (Mus musculus)
# Sequence (whole entry): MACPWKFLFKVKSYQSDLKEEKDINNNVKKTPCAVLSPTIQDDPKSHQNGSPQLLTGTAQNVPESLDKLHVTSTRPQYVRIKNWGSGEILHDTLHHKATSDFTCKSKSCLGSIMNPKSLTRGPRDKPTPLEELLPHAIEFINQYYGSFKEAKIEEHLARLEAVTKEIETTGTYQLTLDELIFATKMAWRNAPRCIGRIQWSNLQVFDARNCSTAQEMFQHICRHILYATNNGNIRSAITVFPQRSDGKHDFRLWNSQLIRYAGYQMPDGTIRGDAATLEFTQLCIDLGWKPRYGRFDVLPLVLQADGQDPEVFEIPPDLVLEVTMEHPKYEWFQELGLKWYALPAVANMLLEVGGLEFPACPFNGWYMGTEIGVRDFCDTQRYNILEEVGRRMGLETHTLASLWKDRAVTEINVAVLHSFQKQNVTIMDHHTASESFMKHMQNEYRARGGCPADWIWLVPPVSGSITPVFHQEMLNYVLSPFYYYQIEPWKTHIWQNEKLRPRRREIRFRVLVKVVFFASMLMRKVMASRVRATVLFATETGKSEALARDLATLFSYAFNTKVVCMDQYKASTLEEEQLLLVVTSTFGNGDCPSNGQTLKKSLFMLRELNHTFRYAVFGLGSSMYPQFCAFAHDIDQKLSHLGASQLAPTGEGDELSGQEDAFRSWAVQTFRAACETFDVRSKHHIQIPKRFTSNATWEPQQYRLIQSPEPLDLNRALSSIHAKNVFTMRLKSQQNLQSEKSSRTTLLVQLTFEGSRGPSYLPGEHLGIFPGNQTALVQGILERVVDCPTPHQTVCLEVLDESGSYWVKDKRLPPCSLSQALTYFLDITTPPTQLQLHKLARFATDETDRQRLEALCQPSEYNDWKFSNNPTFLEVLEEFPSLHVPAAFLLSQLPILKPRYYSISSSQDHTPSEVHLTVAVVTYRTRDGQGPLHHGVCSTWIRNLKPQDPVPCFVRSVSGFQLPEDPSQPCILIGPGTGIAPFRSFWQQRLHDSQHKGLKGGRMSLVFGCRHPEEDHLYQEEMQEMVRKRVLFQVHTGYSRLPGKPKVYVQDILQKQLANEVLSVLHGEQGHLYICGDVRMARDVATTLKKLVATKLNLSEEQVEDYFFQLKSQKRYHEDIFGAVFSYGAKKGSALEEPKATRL
# assay.summary: Inhibition of inducible mitochondrial NOS in stantia nigra isolated from MPTP-induced parkinson's disease C57/Bl6 mouse model assessed as L-[3H]citrulline per mg of protein at 20 mg/kg, b.w 1 hr before MPTP challenge after 32 hrs by liquid scintillation spectroscopy
# Assay type: organism-based
# Set-up: dose 20 mg/kg
measure.name: Activity (pmol/min)

Below, 2 compounds whose answers are already recorded.
sample_smiles=CN1CC=C(c2ccccc2)CC1 experimental_value=43.8
sample_smiles=CNC(=O)c1ccc(-c2ccccc2N)[nH]1 experimental_value=7.46

1. Nc1ccccc1-c1ccc(C(=O)NC2CCCC2)[nH]1
2. COc1ccc2[nH]cc(CCNC(C)=O)c2c1
Q: Between 1 and 2 , which one has the lower reported Activity value? Your answer should be the label of the entry you select.
Ans: 1
